Consider the following molecules; for each one, report its IC50.
Target: BRD4_2 (Homo sapiens)
Construct: contains two tandem bromodomains (BrD1 and BrD2)
Assay: Fluorescence anisotropy binding assay (competition with FITC-labeled MS417 probe), BRD4_2
Conditions: FITC-MS417 probe 80 nM, PBS pH 7.4, 1 hour, 25° C.

molecule | target.or.test.system | experimental.value
COc1cc(NC2=C(C)C(=O)CC2)ccc1C(=O)Nc1ccc(C)cc1 [Example 04-74] | BRD4_2 (Homo sapiens) | 1 to 10 µM
CC1=C(Nc2ccc(C(=O)O)c(Cl)c2)CCC1=O [Example 01-10] | BRD4_2 (Homo sapiens) | > 10 µM
CC1=C(Nc2cccc(NC(=O)c3ccccc3C)c2Cl)CCCC1=O [Example 05-50] | BRD4_2 (Homo sapiens) | > 10 µM

Below are some molecules; for each one, tell me its IC50.
1. CC1=C(Nc2ccc(C(=O)Nc3ccc(C)cc3)cc2Cl)CCC1=O [Example 04-22]
2. CC1=C(Nc2ccc(C(=O)O)cc2I)CCC1=O [Examples 02-8]

result:
1 to 10 µM
1 to 10 µM

* * *

Molecular target: BRD4_2 (Homo sapiens, UniProt O60885)
Construct: contains two tandem bromodomains (BrD1 and BrD2)
Assay: Fluorescence anisotropy binding assay (competition with FITC-labeled MS417 probe), BRD4_2
Details: FITC-MS417 probe 80 nM, PBS pH 7.4, 1 hour, 25° C.
Consider the following molecules; for each one, report its IC50.

compound.structure.string | IC50
CC1=C(Nc2cccc(-c3cn(-c4ccccc4)nn3)c2)CCC1=O | 1 to 10 µM

Below are some molecules; for each one, tell me its IC50.
1. COc1cc(NC2=C(C)C(=O)CC2)ccc1C(=O)NC1CCCCC1
2. CNC(=O)c1ccc(NC2=C(C)C(=O)CC2)cc1OC

result:
1. 1 to 10 µM
2. 1 to 10 µM

Below are some molecules; for each one, tell me its IC50.
1. COc1cc(C(=O)NC2CCCCC2)ccc1NC1=C(C)C(=O)CC1
2. CC1=C(Nc2ccc(C#N)cc2)CCC1=O

result:
["1 to 10 µM", "> 10 µM"]

Below are some molecules; for each one, tell me its IC50.
1. CC1=C(Nc2cc(C(=O)Nc3ccccc3C)ccc2Cl)CCC1=O
2. CC1=C(Nc2cccc(NC(=O)c3cccc4ccccc34)c2Cl)CCCC1=O
3. CC1=C(Nc2cc(NC(=O)c3cccc4ccccc34)ccc2Cl)CCCC1=O
4. COc1ccc(NC(=O)c2ccc(Cl)c(NC3=C(C#N)C(=O)CCC3)c2)cc1
5. CC1=C(Nc2cc(C(=O)Nc3ccccc3C)c3ccccc3c2)CCCC1=O
6. CC1=C(Nc2cc(C(=O)Nc3cccc(C(=O)O)c3C)ccc2Cl)CCCC1=O

result:
1. 1 to 10 µM
2. 1 to 10 µM
3. 1 to 10 µM
4. > 10 µM
5. 1 to 10 µM
6. > 10 µM

Below are some molecules; for each one, tell me its IC50.
1. COc1ccc(Cn2cc(-c3cccc(NC4=C(C)C(=O)CC4)c3)nn2)cc1
2. CC1=C(Nc2ccc(C(=O)Nc3cccc(F)c3)c(Cl)c2)CCC1=O
3. CC1=C(Nc2ccc(NCCc3ccccc3C)cc2Cl)CCCC1=O
4. CC1=C(Nc2ccc(C(=O)Nc3ccccc3C)cc2C)CCC1=O
5. COc1ccc(NC(=O)c2ccc(NC3=C(C)C(=O)CC3)c(Cl)c2)cc1
6. COc1ccccc1NC(=O)c1ccc(NC2=C(C)C(=O)CC2)c(OC)c1
7. CC1=C(Nc2ccc(NS(=O)(=O)c3ccccc3C)cc2Cl)CCC1=O

result:
1: 1 to 10 µM; 2: > 10 µM; 3: 1 to 10 µM; 4: 1 to 10 µM; 5: 1 to 10 µM; 6: 1 to 10 µM; 7: 1 to 10 µM

Below are some molecules; for each one, tell me its IC50.
1. COc1cc(C(=O)Nc2cccc(C)c2)ccc1NC1=C(C)C(=O)CC1
2. CC1=C(Nc2cccc(-c3cn(Cc4ccccc4)nn3)c2)CCC1=O
3. CC1=C(Nc2cc(NS(=O)(=O)c3ccccc3C)ccc2Cl)CCC1=O
4. CNC(=O)c1ccc(NC2=C(C)C(=O)CC2)c(Cl)c1
5. CC1=C(Nc2ccc(C(=O)Nc3ccccc3)cc2C)CCC1=O

result:
1 to 10 µM
1 to 10 µM
< 1 µM
1 to 10 µM
1 to 10 µM

Below are some molecules; for each one, tell me its IC50.
1. CC1=C(Nc2cccc(NC(=O)c3ccccc3C)c2Cl)CCC1=O
2. CC1=C(Nc2cc(NS(=O)(=O)c3ccccc3C#N)ccc2Cl)CCC1=O
3. CC1=C(Nc2cc(NS(=O)(=O)c3ccccc3C)ccc2Cl)CCCC1=O

result:
["1 to 10 µM", "< 1 µM", "< 1 µM"]

Below are some molecules; for each one, tell me its IC50.
1. COC(=O)c1ccc(C)c(NC(=O)c2ccc(Cl)c(NC3=C(C)C(=O)CCC3)c2)c1
2. COc1cc(C(=O)Nc2ccccc2C)ccc1NC1=C(C)C(=O)CC1
3. CC1=C(Nc2ccc3cc[nH]c3c2)CCCC1=O
4. COC(=O)c1ccc(NC2=C(C)C(=O)CCC2)c(Cl)c1
5. COc1ccccc1NC(=O)c1ccc(NC2=C(C)C(=O)CC2)c(C)c1
6. CC1=C(NC2CCN(C(=O)OC(C)(C)C)CC2)CCC1=O

result:
1 to 10 µM
1 to 10 µM
1 to 10 µM
1 to 10 µM
1 to 10 µM
> 10 µM

Below are some molecules; for each one, tell me its IC50.
1. CC1=C(Nc2cc(NS(=O)(=O)c3ccccc3F)ccc2Cl)CCC1=O
2. CC1=C(Nc2ccc3ccccc3c2)CCC1=O
3. COc1cccc(NC(=O)c2ccc(NC3=C(C)C(=O)CC3)cc2OC)c1
4. CC1=C(Nc2cccc(C(=O)Nc3ccccc3F)c2)CCC1=O

result:
< 1 µM
1 to 10 µM
1 to 10 µM
1 to 10 µM

* * *

Molecular target: BRD4_2 (Homo sapiens, UniProt O60885)
Construct: contains two tandem bromodomains (BrD1 and BrD2)
Experiment: Fluorescence anisotropy binding assay (competition with FITC-labeled MS417 probe), BRD4_2
Settings: FITC-MS417 probe 80 nM, PBS pH 7.4, 1 hour, 25° C.
pIC50: −log10 of the molar value.
Consider the following molecules; for each one, report its pIC50.

Example cases with answers are listed next.
compound.structure.string | experimental.value
CC1=C(Nc2cc(NC(=O)c3cccc4ccccc34)ccc2Cl)CCC1=O | > 6.00
COc1cc(C(=O)Nc2ccc(C)cc2)ccc1NC1=C(C)C(=O)CC1 | 5.00 to 6.00
CC1=C(Nc2cc(NS(=O)(=O)C3CCCCC3)ccc2Cl)CCCC1=O | > 6.00
CC1=C(Nc2ccc(C(=O)NC3CCCCC3)cc2Cl)CCC1=O | 5.00 to 6.00

Below are some molecules; for each one, tell me its pIC50.
1. COc1cccc(NC(=O)c2ccc(NC3=C(C)C(=O)CC3)c(Cl)c2)c1
2. CC1=C(Nc2cccc(NCc3ccccc3C)c2Cl)CCCC1=O
3. COC(=O)c1ccc(NC2=C(C)C(=O)CC2)c(Cl)c1
4. CC1=C(Nc2ccccn2)CCC1=O

result:
1. 5.00 to 6.00
2. 5.00 to 6.00
3. 5.00 to 6.00
4. < 5.00

query: Supply pIC50 value. Item: "CC1=C(Nc2cccc(C(=O)O)c2)CCC1=O"
result: 5.00 to 6.00

* * *

property.name: melting point

Example cases with answers are listed next.
compound.structure.string | melting point
COc1ccc(C(=O)Nc2ccc(Cl)c(NC3=C(C)C(=O)CC3)c2)cc1 | 254 to 257 °C
CC1=C(Nc2ccc(NS(=O)(=O)c3ccccc3C)cc2Cl)CCC1=O | 215 to 218 °C
COC(=O)c1cccc(NC2=C(C)C(=O)CC2)c1 | 133 to 135 °C
CC1=C(Nc2cc(NS(=O)(=O)C3CCCCC3)ccc2Cl)CCC1=O | 158 to 160 °C

Let's switch to this compound now.
query: Supply melting point value. Item: "CC1=C(Nc2cccc(C(=O)O)c2Cl)CCC1=O"
result: 230 to 232 °C

* * *

Molecular target: BRD4_2 (Homo sapiens, UniProt O60885)
Construct: contains two tandem bromodomains (BrD1 and BrD2)
Test: Fluorescence anisotropy binding assay (competition with FITC-labeled MS417 probe), BRD4_2
Settings: FITC-MS417 probe 80 nM, PBS pH 7.4, 1 hour, 25° C.
pIC50: −log10 of the molar value.
property.name: pIC50

Example cases with answers are listed next.
compound.structure.string | experimental.value
CC1=C(Nc2cccc(Cl)c2C(=O)O)CCC1=O | < 5.00
CC1=C(Nc2ccc(NC(=O)c3cccc4ccccc34)cc2Cl)CCCC1=O | 5.00 to 6.00
COc1ccc(NC(=O)c2ccc(NC3=C(C)C(=O)CC3)c(OC)c2)cc1 | 5.00 to 6.00
CC1=C(Nc2cccc(C(=O)Nc3ccccc3)c2)CCC1=O | 5.00 to 6.00

Let's switch to this compound now.
query: Supply pIC50 value. Item: "CC1=C(Nc2ccc3cc(C(=O)O)ccc3c2)CCCC1=O"
result: 5.00 to 6.00
